- Test system: Expi-CHO cells
- assay overview: Glycan analysis of HER2 antibody from compound-treated Expi-CHO cells (PNGaseF release, CE-LIF)
- Type: cell-based, Chinese hamster
- conditions used: 0.1 mM compound added a day after transfection with HER2 antibody; harvested after 8 days; released glycans by CE-LIF
quantity measured: Glycan FA2(3)G1 (alt name G1′F) (%)
Answers are plain numbers, in %.

CC1=C[C@H](O)[C@@H](O)[C@H](O)[C@@H]1O; 0.0
CC1=C[C@H](O)[C@@H](F)[C@H](O)[C@@H]1O; 0.6
CC(=O)O[C@H]1[C@H](F)[C@@H](OC(C)=O)C=C(C)[C@H]1OC(C)=O; 0.0
CC1C[C@H](O)[C@@H](F)[C@H](O)[C@@H]1O (stereo partly drawn); 0.0
CC1C[C@H](O)[C@@H](O)[C@H](O)[C@@H]1O (stereo partly drawn); 0.0

(Q) So what does the record say about Glycan FA2(3)G1 (alt name G1′F) (%) for CC(=O)O[C@H]1[C@H](F)[C@@H](OC(C)=O)CC(C)[C@H]1OC(C)=O (stereo partly drawn) ?
(A) 0.0

----------
- System: Expi-CHO cells
- assay overview: Glycan analysis of HER2 antibody from compound-treated Expi-CHO cells (PNGaseF release, CE-LIF)
- Type: cell-based, Chinese hamster
- conditions used: 0.1 mM compound added a day after transfection with HER2 antibody; harvested after 8 days; released glycans by CE-LIF; non-fucosylated glycan
Kindly supply the reported Glycan A2 (alt name G0) (%) values for the records listed here.
Give your result as the value with the unit written after it.

CC(=O)O[C@H]1[C@H](F)[C@@H](OC(C)=O)CC(C)[C@H]1OC(C)=O (stereo partly drawn) [Compound 9]; 0.0%
CC1C[C@H](O)[C@@H](O)[C@H](O)[C@@H]1O (stereo partly drawn) [Compound 15]; 70.6%
CC1=C[C@H](O)[C@@H](O)[C@H](O)[C@@H]1O [Compound 13]; 0.0%
CC(=O)O[C@H]1[C@H](F)[C@@H](OC(C)=O)C=C(C)[C@H]1OC(C)=O [Compound 7]; 0.0%

Batch lookup, Glycan A2 (alt name G0) (%) per entry.
1. CC1C[C@H](O)[C@@H](F)[C@H](O)[C@@H]1O (stereo partly drawn) [Compound 8]
2. CC1=C[C@H](O)[C@@H](F)[C@H](O)[C@@H]1O [Compound 6]

(A)
1. 0.0%
2. 0.0%
